Target entity: CLK2 kinase (Homo sapiens, UniProt P49760)
Sequence (P49760 whole entry): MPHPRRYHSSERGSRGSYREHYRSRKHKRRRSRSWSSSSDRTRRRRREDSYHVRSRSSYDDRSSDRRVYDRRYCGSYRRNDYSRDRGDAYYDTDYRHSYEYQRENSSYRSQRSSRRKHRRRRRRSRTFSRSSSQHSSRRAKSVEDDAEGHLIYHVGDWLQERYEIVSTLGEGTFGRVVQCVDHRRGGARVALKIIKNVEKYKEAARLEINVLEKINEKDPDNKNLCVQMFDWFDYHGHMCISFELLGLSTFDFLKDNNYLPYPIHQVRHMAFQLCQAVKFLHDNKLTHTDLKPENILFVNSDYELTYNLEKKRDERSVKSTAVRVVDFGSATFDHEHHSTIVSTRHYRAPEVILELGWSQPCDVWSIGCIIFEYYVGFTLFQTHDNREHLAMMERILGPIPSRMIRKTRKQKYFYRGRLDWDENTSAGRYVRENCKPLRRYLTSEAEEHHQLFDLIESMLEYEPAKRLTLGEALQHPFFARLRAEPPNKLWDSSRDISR
Procedure details: CLK2 kinase activity assay (Z-lyte FRET);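 note: FRET read-out as coumarin to fluorescein emission ratio, unphosphorylated peptide as 0% and phosphorylated peptide as 100% controls, duplicate reactions, non-linear regression fit of dose-response curves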
Condition description: Z-lyte Ser/Thr 6 peptide, 60 μM ATP, 1 h at room temperature
Property name: pEC50
pEC50 is a log-scale quantity: -log10 of the concentration expressed in molar.

Worked examples follow.
CN(C)Cc1cncc(-c2ccc3[nH]nc(-c4cc5c(-c6ccncc6)cncc5[nH]4)c3c2)c1
8.52
CN1CCN(c2nccc3[nH]c(-c4n[nH]c5cc(F)c(-c6cnn(C)c6)cc45)nc23)CC1
9.00
CC(C)Nc1cncc(-c2ccc3[nH]nc(-c4nc5c(-c6ccoc6)nccc5[nH]4)c3n2)c1
8.70

In: Given the entry "CN1CCCn2cc(nn2)-c2nccc3[nH]c(nc23)-c2n[nH]c3ccc(cc23)-c2cncc(c2)C1" , report its measured pEC50.
Out: 8.52

In: Given the entry "Cc1ccncc1-c1ccc2[nH]nc(-c3cc4c(-c5ccncc5)ccnc4[nH]3)c2n1" , report its measured pEC50.
Out: 7.96

In: Given the entry "CC(C)CC(=O)Nc1cncc(-c2ccc3[nH]nc(-c4cc5c(-c6cc(F)cc(CNS(C)(=O)=O)c6)nccc5[nH]4)c3n2)c1" , report its measured pEC50.
Out: 8.10

In: Given the entry "FC1(F)CCN(Cc2cncc(-c3ccc4[nH]nc(-c5nc6c(-c7ccsc7)cncc6[nH]5)c4c3)c2)C1" , report its measured pEC50.
Out: 8.15

Data provenance is patent US20230000842A1.
